# Method summary: Growth inhibition of human NCI60 cells after 48 hrs by SRB assay
# Assay type: functional
# Condition set: NCI60, 48 h
# TGI per record follows
Recorded metric: TGI

1) COc1cc2c(cc1OC)C(=O)N1C=C(c3ccc(Cl)cc3)C[C@H]1C=N2	70 nM
2) COc1cc2c(cc1OC)C(=O)N1CCC[C@H]1C=N2	19000 nM
3) COc1cc2c(cc1OC)C(=O)N1C=C(c3ccc(C#N)cc3)C[C@H]1C=N2	150 nM
4) COc1cc2c(cc1OC)C(=O)N1C=C(c3c(C)cccc3C)C[C@H]1C=N2	3460 nM
5) COc1cc2c(cc1OC)C(=O)N1C=C(c3ccc(C(F)(F)F)cc3)C[C@H]1C=N2	30 nM
